Value source: patent US9284283B2

Exercise: for every item that follows, state its recorded IC50.
tested-target: biotinylated human IL-17 (binding to IL17R/Fc) (Homo sapiens)
Construct: 177-IR (IL17R/Fc)
measurement-protocol: IL-17 competition ELISA II (captured IL17R/Fc, biotinylated IL-17)

Here are 2 molecules together with their reported answers.
| molecule | observable | meas-value |
| --- | --- | --- |
| CN1CCOCCN(C)C(=O)[C@@H](CCS(C)(=O)=O)NC(=O)[C@@H](Cc2ccc(NC(=O)[C@H](Cc3ccccc3Cl)NC(=O)C(F)(F)c3ccccc3)cc2)NC(=O)CC2(CCCC2)CC1=O [Compound 649] | IC50 | < 100 nM |
| C[C@H]1NC(=O)[C@@H](Cc2ccc(NC(=O)[C@H](Cc3cccs3)NC(=O)C(F)(F)c3ccccc3)cc2)NC(=O)CC2(CCCC2)CC(=O)N(C)CCCCCN(C)C1=O [Compound 630] | IC50 | < 100 nM |

Req: Could you tell me which IC50 is on file for C[C@H]1NC(=O)[C@@H](Cc2ccc(NC(=O)[C@H](Cc3ccccc3Cl)NC(=O)Cc3ccc(F)cc3)cc2)N(C)C(=O)CC2(CCCC2)CC(=O)NCCCCCNC1=O [Compound 486] ?
Resp: < 100 nM

###

tested-target: biotinylated human IL-17 (binding to IL17R/Fc) (Homo sapiens, UniProt Q16552)
Construct: 177-IR (IL17R/Fc)
Sequence (Q16552 20-155 limits assumed): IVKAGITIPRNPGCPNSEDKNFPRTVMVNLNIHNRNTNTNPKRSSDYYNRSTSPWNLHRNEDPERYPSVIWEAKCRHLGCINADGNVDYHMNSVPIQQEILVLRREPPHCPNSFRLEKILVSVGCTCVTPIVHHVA
measurement-protocol: IL-17 competition ELISA II (captured IL17R/Fc, biotinylated IL-17)
Exercise: for every item that follows, state its recorded IC50.

For each of the molecules below, note its IC50.
1. O=C1CNC(=O)[C@@H](Cc2ccc(NC(=O)[C@@H](NC(=O)c3cccnc3)C3CCCCC3)cc2)NC(=O)CC2(CCCC2)CC(=O)NCCCCCN1
2. CN1CCCCCN(C)C(=O)[C@@H](CCC(N)=O)NC(=O)[C@@H](Cc2ccc(NC(=O)[C@@H](NC(=O)Cc3ccc(CO)cc3)C3CCCCC3)cc2)NC(=O)CC2(CCCC2)CC1=O
3. O=C1CNC(=O)[C@@H](Cc2ccc(NC(=O)[C@H](Cc3ccccc3Cl)NC(=O)C(F)(F)c3ccccc3)cc2)NC(=O)CC2(CCCC2)CC(=O)OCCCCCN1
4. O=C1CC2(CCCC2)CC(=O)N[C@H](Cc2ccc(NC(=O)[C@H](Cc3ccccc3Cl)NC(=O)Cc3ccc(CO)cc3)cc2)C(=O)NC/C=C/CCCCCN1
5. CC(=O)N[C@H](C(=O)Nc1ccc(C[C@H]2NC(=O)CC3(CCCC3)CC(=O)NCCCCCNC(=O)CNC2=O)cc1)C1CCCCC1
6. C[C@H]1NC(=O)[C@@H](Cc2ccc(NC(=O)[C@H](Cc3ccccc3Cl)NC(=O)Oc3ccc(F)cc3)cc2)NC(=O)CC2(CCCC2)CC(=O)NCCCCCNC1=O
7. O=C1CNC(=O)[C@@H](Cc2ccc(NC(=O)[C@H](Cc3ccc(F)cc3Cl)NC(=O)Cc3ccc(CO)cc3)cc2)NC(=O)CC2(CCCC2)CC(=O)NCCCCCN1

Resp:
1: 100 to 1000 nM; 2: < 100 nM; 3: < 100 nM; 4: < 100 nM; 5: 100 to 1000 nM; 6: < 100 nM; 7: < 100 nM

For each of the molecules below, note its IC50.
1. O=C1CC2(CCCC2)CC(=O)N[C@H](Cc2ccc(NC(=O)[C@H](Cc3ccccc3Cl)NC(=O)[C@@H](O)c3ccccc3)cc2)C(=O)NCCOCCOCCN1
2. O=C1CNC(=O)[C@@H](Cc2ccc(NC(=O)[C@H](CC3CCCCC3)NC(=O)Cc3ccccc3)cc2)NC(=O)CC2(CCCC2)CC(=O)NCCCCCN1
3. O=C1CC2(CCCC2)CC(=O)N[C@H](Cc2ccc(NC(=O)[C@H](Cc3ccccc3Cl)NC(=O)Cc3ccc(CO)cc3)cc2)C(=O)NCCOCCN1

Resp:
["< 100 nM", "< 100 nM", "< 100 nM"]

Req: Could you tell me which IC50 is on file for `CC(C)OC(=O)N[C@@H](Cc1ccccc1Cl)C(=O)Nc1ccc(C[C@H]2NC(=O)CC3(CCCC3)CC(=O)NCCOCCOCCNC2=O)cc1` ?
Resp: < 100 nM

###

tested-target: recombinant human IL17a (binding to its receptor IL17R) (Homo sapiens)
Construct: 177-IR (IL17R/Fc)
measurement-protocol: IL-17 competition ELISA I (IL17a coated, IL17R/Fc binding)
pIC50: −log10 of the molar value.
observable: pIC50

| test-smiles | tested-target | pIC50 |
| --- | --- | --- |
| CC1(C)CC(=O)NCCCCCNC(=O)CNC(=O)[C@@H](Cc2ccc(NC(=O)[C@@H](NC(=O)Cc3ccccc3)C3CCCCC3)cc2)NC(=O)C1 | recombinant human IL17a (binding to its receptor IL17R) (Homo sapiens) | 6.00 to 7.00 |

For each of the compounds below, note its pIC50.
1. O=C1CNC(=O)[C@@H](Cc2ccc(NC(=O)[C@@H](NC(=O)Cc3ccccc3)C3CCCCC3)cc2)NC(=O)CC2(CCCC2)CC(=O)NCCCCCN1
2. CC1(C)CC(=O)NCCCCCNC(=O)CNC(=O)[C@@H](Cc2ccc(NC(=O)[C@H](Cc3cccs3)NC(=O)c3cccnc3)cc2)NC(=O)C1
3. C[C@H]1NC(=O)[C@@H](Cc2ccc(NC(=O)[C@@H](NC(=O)c3cccnc3)C3CCCCC3)cc2)NC(=O)CC2(CCCC2)CC(=O)N[C@H](C(=O)O)CCCCNC1=O
4. O=C1CNC(=O)[C@@H](Cc2ccc(NC(=O)[C@H](Cc3ccccc3Cl)NC(=O)c3ncco3)cc2)NC(=O)CC2(CCCC2)CC(=O)NCCCCCN1
5. CC1(C)CC(=O)NCCCCCNC(=O)CNC(=O)[C@@H](Cc2ccc(NC(=O)[C@H](Cc3ccccc3Cl)NC(=O)Cc3ccccc3)cc2)NC(=O)C1
6. O=C1CNC(=O)[C@@H](Cc2ccc(NC(=O)[C@H](Cc3ccccc3Cl)NC(=O)Cc3ccc(F)cc3F)cc2)NC(=O)CC2(CCCC2)CC(=O)NCCCCCN1
7. CN(C)C(=O)N[C@@H](Cc1ccccc1Cl)C(=O)Nc1ccc(C[C@H]2NC(=O)CC3(CCCC3)CC(=O)NCCCCCNC(=O)CNC2=O)cc1

Resp:
> 7.00
5.00 to 6.00
6.00 to 7.00
6.00 to 7.00
> 7.00
> 7.00
> 7.00

For each of the compounds below, note its pIC50.
1. O=C1CC2(CCCC2)CC(=O)N[C@H](Cc2ccc(NC(=O)[C@@H](NC(=O)Cc3ccc(CO)cc3)C3CCCCC3)cc2)C(=O)NCCCCCCCCN1
2. O=C1CNC(=O)[C@@H](Cc2ccc(NC(=O)[C@H](Cc3ccccc3Cl)NC(=O)c3cc(F)c(F)cc3F)cc2)NC(=O)CC2(CCCC2)CC(=O)NCCCCCN1
3. O=C1CNC(=O)[C@@H](Cc2ccc(NC(=O)[C@H](NC(=O)Cc3ccccc3)C3CCCCC3)cc2)NC(=O)CC2(CCCC2)CC(=O)NCCCCCN1

Resp:
6.00 to 7.00
6.00 to 7.00
5.00 to 6.00

###

tested-target: recombinant human IL17a (binding to its receptor IL17R) (Homo sapiens, UniProt Q16552)
Construct: 177-IR (IL17R/Fc)
Sequence (Q16552 20-155 limits assumed): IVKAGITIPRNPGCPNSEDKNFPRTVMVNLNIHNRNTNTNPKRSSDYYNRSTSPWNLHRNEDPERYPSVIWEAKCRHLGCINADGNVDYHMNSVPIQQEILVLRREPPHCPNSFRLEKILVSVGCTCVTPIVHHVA
measurement-protocol: IL-17 competition ELISA I (IL17a coated, IL17R/Fc binding)
observable: IC50

Here are 4 compounds together with their reported answers.
| test-smiles | IC50 |
| --- | --- |
| O=C1CC2(CCCC2)CC(=O)N[C@H](Cc2ccc(NC(=O)[C@@H](NC(=O)Cc3ccc(CO)cc3)C3CCCCC3)cc2)C(=O)NCCCCCCCN1 | 100 to 1000 nM |
| O=C1CNC(=O)[C@@H](Cc2ccc(NC(=O)[C@H](Cc3ccccc3Cl)NC(=O)C3CCOCC3)cc2)NC(=O)CC2(CCCC2)CC(=O)NCCCCCN1 | 100 to 1000 nM |
| O=C1CNC(=O)[C@@H](Cc2ccc(NC(=O)[C@H](Cc3ccccc3Cl)NC(=O)Cc3ccccc3O)cc2)NC(=O)CC2(CCCC2)CC(=O)NCCCCCN1 | < 100 nM |
| CC(=O)N[C@H](C(=O)Nc1ccc(C[C@H]2NC(=O)CC(C)(C)CC(=O)NCCCCCNC(=O)CNC2=O)cc1)C1CCCCC1 | 1000 to 10000 nM |

For each of the compounds below, note its IC50.
1. CNC(=O)N[C@@H](Cc1ccccc1Cl)C(=O)Nc1ccc(C[C@H]2NC(=O)CC3(CCCC3)CC(=O)NCCCCCNC(=O)CNC2=O)cc1
2. O=C1CNC(=O)[C@@H](Cc2ccc(NC(=O)[C@@H](NC(=O)c3cccnc3)C3CCCCC3)cc2)NC(=O)CC2(CCCC2)CC(=O)NCCCCCN1
3. COC(=O)[C@@H]1CCCCNC(=O)CNC(=O)[C@@H](Cc2ccc(NC(=O)[C@@H](NC(=O)c3cccnc3)C3CCCCC3)cc2)NC(=O)CC2(CCCC2)CC(=O)N1
4. CN(C)CC(=O)N[C@@H](Cc1ccccc1Cl)C(=O)Nc1ccc(C[C@H]2NC(=O)CC3(CCCC3)CC(=O)NCCCCCNC(=O)CNC2=O)cc1
5. O=C1CC2(CCCC2)CC(=O)N[C@H](Cc2ccc(NC(=O)[C@H](Cc3ccccc3Cl)NC(=O)Cc3ccc(O)cc3)cc2)C(=O)NCCCCCCCCN1
6. O=C1CCNC(=O)[C@@H](Cc2ccc(NC(=O)[C@H](Cc3ccccc3Cl)NC(=O)Cc3ccccc3)cc2)NC(=O)CC2(CCCC2)CC(=O)NCCCCN1
7. O=C1CNC(=O)[C@@H](Cc2ccc(NC(=O)[C@@H](NC(=O)Cc3ccccn3)C3CCCCC3)cc2)NC(=O)CC2(CCCC2)CC(=O)NCCCCCN1

Resp:
100 to 1000 nM
1000 to 10000 nM
1000 to 10000 nM
100 to 1000 nM
< 100 nM
< 100 nM
100 to 1000 nM
